Test system: NCI-H2405
procedure.text: relative viability (nuclei count vs DMSO), 5 days (fraction); higher = more cells survive
test.settings: first compound 0.03162 µM
Entries whose relative viability is below 0.9 take fulfilled; entries at or above 0.9 take not fulfilled.

compound | group.label
CC(C)Oc1cc(Nc2nc(N[C@@H](C)c3ccc(F)cn3)ncc2Cl)n[nH]1 [AZ23] + COc1cc2c(Oc3ccc(NC(=O)C4(C(=O)Nc5ccc(F)cc5)CC4)cc3F)ccnc2cc1OCCCN1CCOCC1 [Foretinib] (partner 0.25 µM) | not fulfilled

In the record for CC(C)Oc1cc(Nc2nc(N[C@@H](C)c3ccc(F)cn3)ncc2Cl)n[nH]1 [AZ23] + Cc1cc(Nc2cc(N3CCN(C)CC3)nc(Sc3ccc(NC(=O)C4CC4)cc3)n2)n[nH]1 [Tozasertib] (partner 0.1 µM) , is relative viability less than 0.9?
fulfilled

Lab note: relative viability threshold 0.9. Does this compound come in strictly under it? CC(C)Oc1cc(Nc2nc(N[C@@H](C)c3ccc(F)cn3)ncc2Cl)n[nH]1 [AZ23] + CCNC(=O)c1noc(-c2cc(C(C)C)c(O)cc2O)c1-c1ccc(CN2CCOCC2)cc1 [Luminespib] (partner 0.01 µM)
fulfilled

---

Assignment: determine reported relative viability for the given molecules.
System: NCI-H1915
procedure.text: relative viability (nuclei count vs DMSO), 5 days (fraction); higher = more cells survive
test.settings: first compound 0.4 µM
Numbers only.

Some molecules with known relative viability results, for comparison:
molecule | relative viability
COc1cc(N2CCC(C(N)=O)CC2)ccc1Nc1nc(N)c(Cl)c(Nc2ccccc2S(=O)(=O)C(C)C)n1 [HG-5-88-01] + Cc1nc(NC(=O)N2CCC[C@H]2C(N)=O)sc1-c1ccnc(C(C)(C)C(F)(F)F)c1 [Alpelisib] (partner 2 µM) | 1.12
C[C@@H]1CN(CC(=O)Nc2ccc3c(c2)Cc2cccc(-c4cc(=O)cc(N5CCOCC5)o4)c2S3)C[C@H](C)O1 + N=C(N)NC(=N)NCCc1ccccc1 [Phenformin] (partner 250 µM) | 0.382

Next:
API: value(readout=relative viability, system=NCI-H1915) for record Clc1ccc(Nc2nnc(Cc3ccncc3)c3ccccc23)cc1 [Vatalanib] + CC1(C)CCC(c2ccc(Cl)cc2)=C(CN2CCN(c3ccc(C(=O)NS(=O)(=O)c4ccc(N[C@H](CCN5CCOCC5)CSc5ccccc5)c(S(=O)(=O)C(F)(F)F)c4)cc3)CC2)C1 [Navitoclax] (partner 0.5 µM)
0.771

---

Tested on: ABC-1
procedure.text: relative viability (nuclei count vs DMSO), 5 days (fraction); higher = more cells survive
test.settings: first compound 4 µM
observed.property: relative viability
Answers are plain numbers.

compound | result.value
Clc1ccc(Nc2nnc(Cc3ccncc3)c3ccccc23)cc1 [Vatalanib] + Cc1nc(NC(=O)N2CCC[C@H]2C(N)=O)sc1-c1ccnc(C(C)(C)C(F)(F)F)c1 [Alpelisib] (partner 2 µM) | 0.926
COc1cc(N2CCC(C(N)=O)CC2)ccc1Nc1nc(N)c(Cl)c(Nc2ccccc2S(=O)(=O)C(C)C)n1 [HG-5-88-01] + O=C(CCCCCCC(=O)Nc1ccccc1)NO [Vorinostat] (partner 1 µM) | 0.715

Dear colleague, I am looking for the recorded relative viability of the following compound: C[C@@H]1CN(CC(=O)Nc2ccc3c(c2)Cc2cccc(-c4cc(=O)cc(N5CCOCC5)o4)c2S3)C[C@H](C)O1 + CS(=O)(=O)CCNCc1ccc(-c2ccc3ncnc(Nc4ccc(OCc5cccc(F)c5)c(Cl)c4)c3c2)o1 [Lapatinib] (partner 2 µM)
1.21
